Measured values drawn from ChEMBL document CHEMBL1201862 for this set.

# Test system: OVCAR-3
# experimentSummary: NCI tumour cell line growth inhibition, 48 h
Active and inactive are the calls of the source. Cut-off read from the data, not from the text of the source: active = GI50 up to about 1.1 µM and inactive = higher.
quantityKind: GI50

> print(dat)
                                   compound               result
1  CCOC(=O)C(SCCO)C(C(=O)OCC)n1ccc(=O)[nH]c1=O (stereo not given)   23.3 µM (inactive)
2  C[S+](C)CCOC(=O)C(=[N+]=[N-])c1ccc([N+](=O)[O-])cc1  > 100 µM (inactive)
3                      C=C(Br)CN(C)CC(=C)Br  > 100 µM (inactive)
4                      c1cc2c(ncc3cscc32)s1  > 100 µM (inactive)
5  COc1ccc(CNc2nc3cc(C(F)(F)F)ccc3nc2C(=O)O)cc1   15.3 µM (inactive)

###

# Test system: SK-MEL-28
# experimentSummary: NCI tumour cell line growth inhibition, 48 h
Activity calls are given as the source filed them. Rule as the data show it: active = GI50 up to about 1.1 µM and inactive = higher.
Labels: class 1 for active, class 0 for inactive

compound	cat
COc1ccc2oc(-c3cccnc3)cc(=O)c2c1	class 0
C[C@]12CC[C@H](OC(=O)Cc3ccc(N(CCCl)CCCl)cc3)CC1=CC[C@@H]1[C@@H]2CC[C@]2(C)C(=O)CC[C@@H]12	class 0
[N-]=[N+]=C1N=CN=C1c1nc[nH]n1	class 0
O=C(Nc1nc2c(=O)[nH]cnc2s1)c1ccccc1	class 0
C[C@]12CC[C@H](O)C[C@H]1CC[C@@H]1[C@@H]2CC[C@]2(C)[C@@H](C3=CC(=O)OC3)CC[C@]12O	class 1
COc1ccc(C(c2ccc(C(C)C)cc(=O)c2O)c2c(O)cc3oc(-c4ccccc4)cc(=O)c3c2O)cc1 (configuration not stated)	class 0
CC(C)/C(=N\[N+](C)(C)C)c1ccccc1	class 0
CCC(CC)NC1=C(NC(C)=O)C(=O)c2ccccc2C1=O	class 0
CC(=O)N(C)SCC(NC(=O)C(Cc1ccccc1)NC(=O)OCc1ccccc1)C(=O)NC(Cc1ccccc1)C(=O)NC(Cc1cn(C=O)c2ccccc12)C(=O)NC(CCCCNC(=O)OCc1ccccc1)C(=O)NC(C(=O)NC(CSN(C)C(C)=O)C(=O)NO)C(C)OCc1ccccc1 (configuration not stated)	class 0
COc1ccc(NC(=O)C(C#N)=C(SC)SC)cc1	class 0
CCCCCCOP(=O)(OCCCCCC)C(NC(=O)OCC)(C(F)(F)F)C(F)(F)F	class 0
CN[C@@H](C)[C@@H](NC)c1ccccc1	class 0
CC(=O)Nc1cccc2[nH]c3ccccc3c(=O)c12	class 0
Clc1ccc(OCc2nnc3sc(SSc4nn5c(COc6ccc(Cl)cc6)nnc5s4)nn23)cc1	class 0
C=C1N(C)c2ccc(S(=O)(=O)c3ccc4c(c3)C(C)(C)C(=C)N4C)cc2C1(C)C	class 0
CCC1(CC)C(=O)N(C(=O)c2ccc(Cl)cc2)N(C(=O)c2ccccc2Cl)C1=O	class 0
C[C@]1(CO)[C@H]2CC[C@@]34C=C[C@@](CO)(CC[C@H]3[C@]2(C)CC[C@H]1O)C4	class 0

###

# Tested on: NCI/ADR-RES
# experimentSummary: NCI tumour cell line growth inhibition, 48 h
The source made the active and inactive calls. No stated cut-off is given here; in the data, active = GI50 up to about 1.1 µM and inactive = higher.
Catalogue of molecules with associated GI50
quantityKind: GI50

> print(dat)
                                    molecule                result
 1     c1csc(-c2cc(-c3cccs3)c(-c3cccs3)s2)c1   > 100 µM (inactive)
 2                      O=C(CCCl)NN=C1NCCCN1   > 100 µM (inactive)
 3  COc1ccc2cc(CN3CCC(C4CCN(Cc5ccc6cc(OC)ccc6c5)CC4)CC3)ccc2c1    6.82 µM (inactive)
 4       CCOC(=N)n1c(=O)n(C2=NCCN2)c2ccccc21   > 100 µM (inactive)
 5    N#Cc1c(N)c(-c2ccc(Cl)cc2)c(F)c2ccccc12   > 100 µM (inactive)
 6  O=C(O)c1cc(/N=N/c2ccc([N+](=O)[O-])cc2)ccc1O    30.8 µM (inactive)
 7  COc1ccc(CNc2nc3cc(C(F)(F)F)ccc3nc2C(=O)O)cc1    24.3 µM (inactive)
 8  CCN(CC)CCCNc1[nH]c2ccccc2c2nc3ccc(OC)cc3c1-2    1.27 µM (inactive)
 9            O=C(/C=C/c1ccccc1)Oc1cccc(O)c1    42.8 µM (inactive)
10  COc1cccc(CCn2c(N)c(C#N)c3ccc([N+](=O)[O-])cc3c2=O)c1  > 46.5 µM (inactive)
11  COc1ccc(CCN2C(=O)C(=O)C(C(=O)c3ccccc3)C2c2ccccc2)cc1OC (stereo not drawn)    58.6 µM (inactive)
12  CCCCCCOP(=O)(OCCCCCC)C(NC(=O)OCC)(C(F)(F)F)C(F)(F)F    28.8 µM (inactive)
13                                CCNCCCCNCC  > 3750 µM (inactive)
